Target: hT1R2/hT1R3 sweet receptor (Homo sapiens, UniProt Q7RTX0+Q8TE23)
Construct: expressed in transfected cells; host or cells: HEK293 derivative stably expressing Gα15, clone S-9
Sequence (Q8TE23 20-839): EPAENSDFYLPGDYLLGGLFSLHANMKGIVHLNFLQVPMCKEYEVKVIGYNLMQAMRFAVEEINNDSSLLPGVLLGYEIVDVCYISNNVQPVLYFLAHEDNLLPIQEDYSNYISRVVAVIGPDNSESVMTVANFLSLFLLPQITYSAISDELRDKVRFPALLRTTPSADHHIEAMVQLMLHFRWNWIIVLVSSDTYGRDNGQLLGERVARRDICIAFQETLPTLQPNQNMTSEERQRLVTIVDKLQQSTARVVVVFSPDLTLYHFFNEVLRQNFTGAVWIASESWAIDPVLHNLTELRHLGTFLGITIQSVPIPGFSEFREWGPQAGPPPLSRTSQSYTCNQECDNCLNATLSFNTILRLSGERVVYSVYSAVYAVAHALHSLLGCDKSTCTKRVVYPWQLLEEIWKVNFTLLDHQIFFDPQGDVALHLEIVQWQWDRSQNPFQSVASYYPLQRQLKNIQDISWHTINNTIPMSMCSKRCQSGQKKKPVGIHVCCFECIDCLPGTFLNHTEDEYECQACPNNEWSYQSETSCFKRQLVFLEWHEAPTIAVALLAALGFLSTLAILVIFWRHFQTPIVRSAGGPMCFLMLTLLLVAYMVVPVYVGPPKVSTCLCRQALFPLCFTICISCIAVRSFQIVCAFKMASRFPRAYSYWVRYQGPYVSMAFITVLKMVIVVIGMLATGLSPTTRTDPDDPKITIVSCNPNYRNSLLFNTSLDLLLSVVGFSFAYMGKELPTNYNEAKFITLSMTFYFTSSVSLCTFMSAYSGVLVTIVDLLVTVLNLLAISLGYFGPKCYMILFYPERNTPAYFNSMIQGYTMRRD
Sequence (Q7RTX0 21-852): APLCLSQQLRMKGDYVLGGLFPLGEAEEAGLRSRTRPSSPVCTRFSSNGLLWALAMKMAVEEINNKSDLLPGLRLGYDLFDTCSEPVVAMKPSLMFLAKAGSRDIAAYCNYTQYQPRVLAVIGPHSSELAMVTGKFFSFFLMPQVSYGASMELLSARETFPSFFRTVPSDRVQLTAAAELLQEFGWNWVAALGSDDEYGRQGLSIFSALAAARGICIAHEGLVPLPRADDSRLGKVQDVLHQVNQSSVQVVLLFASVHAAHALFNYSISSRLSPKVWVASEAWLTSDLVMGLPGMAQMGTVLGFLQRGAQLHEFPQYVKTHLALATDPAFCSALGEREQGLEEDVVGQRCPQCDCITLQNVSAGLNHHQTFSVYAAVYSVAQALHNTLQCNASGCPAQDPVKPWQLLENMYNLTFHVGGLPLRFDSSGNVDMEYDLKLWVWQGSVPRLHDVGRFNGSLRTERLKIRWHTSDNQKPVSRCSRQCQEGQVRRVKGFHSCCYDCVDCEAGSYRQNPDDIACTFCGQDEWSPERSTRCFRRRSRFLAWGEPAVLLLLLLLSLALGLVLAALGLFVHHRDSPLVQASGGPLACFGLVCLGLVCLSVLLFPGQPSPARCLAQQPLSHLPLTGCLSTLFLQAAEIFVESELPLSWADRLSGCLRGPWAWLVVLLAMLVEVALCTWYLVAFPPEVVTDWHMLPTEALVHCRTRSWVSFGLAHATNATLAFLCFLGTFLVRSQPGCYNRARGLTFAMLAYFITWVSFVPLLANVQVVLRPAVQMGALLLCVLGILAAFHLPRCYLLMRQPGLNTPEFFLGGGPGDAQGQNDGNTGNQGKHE
Test Method Notes: In vitro hT1R2/hT1R3 sweet taste receptor activation assay (FLIPR, dose response)
Assay type: cell-based
Study Conditions: Table E, Sweet Enhancer Amides; read-out: Sweet EC50
Quantity Name: EC50 (nM)

Some molecules with recorded EC50:
// returns reported EC50 for input O=C(Nc1ccc(F)c(F)c1F)N1Cc2ccccc2C1
2580

For Cc1c(F)c(F)c(C(=O)NC(C)CCC(C)C)c(F)c1F (centres unmarked) then?
3200

Same lookup for Cc1ccc(NC(=O)N2Cc3cccc(C)c3C2)c(C)c1 , please.
250

Now try COc1cc(F)c(NC(=O)N2Cc3cccc(C)c3C2)c(OC)c1 .
90

Please do the same for Cc1c(F)c(F)c(C(=O)NC2CCCC2)c(F)c1F as well.
2230

Follow-up item: CCCCC(C)NC(=O)c1c(F)c(F)c(C)c(F)c1F (centres unmarked)
710

What about this molecule? CCCC(CCC)NC(=O)c1cccc(C(F)(F)F)c1
3030

Next molecule: Cc1c(Cl)cccc1NC(=O)N1CCc2ccccc2C1
4330

I: Cc1cccc(C)c1C(=O)N[C@H]1CCCc2ccccc21
II: CC1CCc2ccccc2C1NC(=O)c1cccc(Cl)c1O (centres unmarked) [Example E1]
I would appreciate it if you could say which entry, I or II , has the lower EC50 value. Use the label to indicate which entry you chose.
II

P: N#Cc1ccccc1NC(=O)N1CCc2ccccc2C1
Q: Cc1cc(Cl)ccc1NC(=O)N1Cc2cccc(C)c2C1
R: CC1CCCCC1NC(=O)c1nsc(Cl)c1Cl (centres unmarked)
S: COc1cccc(C(=O)NC2CCCc3c(OC)cccc32)c1O (centres unmarked)
T: C=CCc1c(F)c(F)c(C(=O)NC2CCCCC2)c(F)c1F
With regard to EC50, arrange the entries in ascending order, please. Sort the labels as requested; that list is your answer.
Q, T, S, P, R
